Catalogue of TGI readings, one per entry.
tested on: MDA-MB-231 breast; experiment: NCI tumour cell line growth inhibition, 48 h
Numbers only here, please. The scale is µM.

Examples from the recorded data:
- Cn1c2c3ccc(Cl)cc3nc-2c(Cl)c2ccccc21: 97.8
- O=C(COc1ccc(Cl)c(Cl)c1)N(Cc1ccccc1)Cc1ccc[n+](Cc2ccc(Cl)cc2S(=O)(=O)F)c1: 31.9
- COc1ccc(-c2c(-c3cc(OC)c(OC)c(OC)c3)noc2N)cc1: 90.1

As a next step, examine the compound that follows.
# returns recorded TGI (system: MDA-MB-231 breast) for NS(=O)(=O)c1ccc(Nc2c3ccccc3nc3c(C(=O)NCCO)cccc23)cc1
0.362

====

tested on: MDA-N; test: NCI tumour cell line growth inhibition, 48 h
Value type: TGI

• COc1ccc(NC(=S)N/N=C(\C)c2nc3ncccc3[nH]2)cc1 = > 100 µM
• CC(O)C1(CNc2cc(Cl)nc(N)n2)CC(CCc2ccccc2)C1 (stereo unspecified) = 27.6 µM

Fill in: TGI of [O-][n+]1onc2c1/C(=N/O)CCC2 is ___
> 100 µM

Same question for CCCCCCCCCCCCCCCCOP(=O)(O)OP(=O)(O)OCC1OC(n2ccc(N)nc2=O)C(O)C1O (stereo unspecified) please.
> 100 µM

====

test system: NCI-H23 lung; assay: NCI tumour cell line growth inhibition, 48 h
Value type: TGI

* CCCCCCCCCCCCCCCCOCC(CCl)OP(=O)(O)OP(=O)(O)OCC1OC(n2ccc(N)nc2=O)C(O)C1O (centres undefined) | > 100 µM
* CN1Cc2cc3c(cc2-c2ccccc21)OCO3 | > 100 µM
* Cc1cc(O)cc(C)c1/C=C/c1cncc(-c2nn[nH]n2)c1 | > 25 µM
* O=c1[nH]c(=O)n(C2CC(O)C(CO)O2)cc1OCC1CCCCC1 (centres undefined) | > 100 µM
* Clc1cc2n[se]nc2cc1Cl | > 100 µM
* CCCCCCCCCCCCCCCCOP(=O)(O)OP(=O)(O)OCC1OC(n2ccc(N)nc2=O)C(O)C1O (centres undefined) | > 100 µM
* O=C1C(Cl)C(c2cc3cc(Br)ccc3nc2Cl)N1c1ccc(Cl)cc1 (centres undefined) | 17.2 µM
* O=c1[nH]cnc2c1CCCN2 | > 100 µM
* c1ccc(C[N+]23CN4CN(CN(C4)C2)C3)cc1 | 36.6 µM
* CC(C)(C)OC(=O)NC1CCC(C(C)(C)C)CC1 (centres undefined) | > 100 µM

Fill in: TGI of Cc1cn2c(/C=N/N=C(N)N)c(-c3cccnc3)nc2s1 is ___
25.2 µM

Same question for COC(=O)Nc1nc2ccc(NC(=O)c3cccs3)cc2[nH]1 please.
> 100 µM

Same question for O=C(Nc1ccc(Cl)c(Cl)c1)N1N=C2c3ccccc3CCC2C1c1ccc(Cl)cc1 (centres undefined) please.
> 100 µM

Same question for CC(C)=CCN1c2ccc(Cl)cc2NC(=O)CC1C (centres undefined) please.
74.9 µM

Same question for CCOC(=O)c1ccc(Nc2nc3ccccc3nc2C(=O)OCC)cc1 please.
> 100 µM

Same question for O=c1c2cc([N+](=O)[O-])ccc2nc2n1CCCCC2 please.
> 100 µM

Same question for CC[C@]12C=CCN3CC[C@@]4(c5cc(Br)c(OC)cc5N(C)[C@H]4[C@@](O)(C(=O)N[C@@H](Cc4ccc(O)cc4)C(=O)OC)[C@@H]1O)[C@@H]32 please.
> 100 µM

Same question for O=C(/C=C/c1ccccc1)N1CCCCC1 please.
> 100 µM

Same question for CC1=C([Te]c2ccc(O)cc2)C(=O)c2ccccc2C1=O please.
5.84 µM

Same question for COc1ccc(-c2cc(-c3ccc(O)cc3)nc3n[nH]c(N)c23)cc1 please.
68.3 µM

Same question for Br/C(=N\Nc1nn[nH]n1)c1ccncc1 please.
> 100 µM

Same question for Cc1nc2ccccc2c(=O)n1NC(=S)Nc1ccc(Cl)cc1[N+](=O)[O-] please.
> 100 µM

Same question for COc1ccc(-c2c(-c3cc(OC)c(OC)c(OC)c3)noc2N)cc1 please.
30 µM

Same question for COc1cccc(Cc2cc(=O)c3ccc(C)nc3[nH]2)c1 please.
> 100 µM

Same question for NS(=O)(=O)c1ccc(Nc2c3ccccc3nc3c(C(=O)NCCO)cccc23)cc1 please.
0.293 µM

Same question for Cc1nc2c(o1)C(=O)c1ccccc1C2=Nc1ccc(N2CCOCC2)cc1 please.
7.62 µM
